- STUDY_SYSTEM: T1, monomeric human PRLR (hPRLR.mmh; SEQ ID NO:401) (Homo sapiens, UniProt P16471)
- T1 construct: soluble monomeric (hPRLR.mmh); mmh (myc-myc-hexahistidine) (C)
- T1 sequence (P16471 with tags, fused parts or gaps): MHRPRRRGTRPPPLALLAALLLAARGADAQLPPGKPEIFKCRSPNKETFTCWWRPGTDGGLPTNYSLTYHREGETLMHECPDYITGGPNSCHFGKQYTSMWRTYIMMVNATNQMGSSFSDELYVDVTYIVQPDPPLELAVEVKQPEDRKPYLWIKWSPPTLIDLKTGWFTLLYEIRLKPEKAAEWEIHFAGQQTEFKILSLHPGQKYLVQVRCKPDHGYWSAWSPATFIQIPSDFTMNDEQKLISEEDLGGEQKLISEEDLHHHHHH
- ASSAY_REMARKS: Surface plasmon resonance (Biacore T200), antibody-capture format
- Format: binding
- CONDITION_CONTEXT: 25° C., analyte hPRLR.mmh
EXPERIMENTAL_ENDPOINT: ka (M/s)

molecule="H1H6803P: fully human anti-PRLR antibody, human IgG1 Fc; HCVR/LCVR SEQ ID NOs 226/234 (antibody, V domains shown) VH: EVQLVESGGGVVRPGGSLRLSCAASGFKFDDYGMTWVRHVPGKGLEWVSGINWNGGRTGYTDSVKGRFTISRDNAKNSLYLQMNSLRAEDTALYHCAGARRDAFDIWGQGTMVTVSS VL: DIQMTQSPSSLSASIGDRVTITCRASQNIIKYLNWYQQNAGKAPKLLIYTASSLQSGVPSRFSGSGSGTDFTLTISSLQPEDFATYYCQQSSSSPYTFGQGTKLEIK" obs_value=82400
molecule="H1H6765P: fully human anti-PRLR antibody, human IgG1 Fc; HCVR/LCVR SEQ ID NOs 18/26 (antibody, V domains shown) VH: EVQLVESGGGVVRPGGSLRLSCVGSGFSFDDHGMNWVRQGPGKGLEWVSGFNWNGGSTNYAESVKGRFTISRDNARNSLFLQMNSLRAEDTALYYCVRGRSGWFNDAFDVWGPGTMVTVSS VL: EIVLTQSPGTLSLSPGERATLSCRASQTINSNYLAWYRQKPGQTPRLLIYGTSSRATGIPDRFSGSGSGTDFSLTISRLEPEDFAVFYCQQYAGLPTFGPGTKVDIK" obs_value=907000
molecule="H1H6781P: fully human anti-PRLR antibody, human IgG1 Fc; HCVR/LCVR SEQ ID NOs 50/58 (antibody, V domains shown) VH: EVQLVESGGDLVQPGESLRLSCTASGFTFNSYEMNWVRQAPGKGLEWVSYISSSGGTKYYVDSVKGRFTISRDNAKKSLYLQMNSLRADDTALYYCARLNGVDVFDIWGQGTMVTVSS VL: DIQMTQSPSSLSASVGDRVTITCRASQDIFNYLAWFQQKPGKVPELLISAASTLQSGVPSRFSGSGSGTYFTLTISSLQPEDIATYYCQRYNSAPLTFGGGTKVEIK" obs_value=208000
molecule="H1H6960N: anti-PRLR antibody, human IgG1 Fc form of H2M6960N of Table 1; HCVR/LCVR SEQ ID NOs 322/330 (antibody, V domains shown, human IgG1 Fc) VH: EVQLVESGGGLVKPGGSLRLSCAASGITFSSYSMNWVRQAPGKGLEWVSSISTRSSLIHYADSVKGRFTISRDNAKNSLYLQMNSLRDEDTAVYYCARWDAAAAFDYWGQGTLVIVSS VL: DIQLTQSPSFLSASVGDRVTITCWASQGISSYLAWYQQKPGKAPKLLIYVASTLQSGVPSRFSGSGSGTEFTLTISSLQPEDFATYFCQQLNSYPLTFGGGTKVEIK" obs_value=108000
molecule="H1H6975N: anti-PRLR antibody, human IgG1 Fc form of H2M6975N of Table 1; HCVR/LCVR SEQ ID NOs 370/378 (antibody, V domains shown, human IgG1 Fc) VH: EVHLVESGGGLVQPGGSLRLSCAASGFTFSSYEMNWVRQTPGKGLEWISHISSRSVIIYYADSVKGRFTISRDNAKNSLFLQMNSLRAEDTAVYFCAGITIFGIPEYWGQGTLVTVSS VL: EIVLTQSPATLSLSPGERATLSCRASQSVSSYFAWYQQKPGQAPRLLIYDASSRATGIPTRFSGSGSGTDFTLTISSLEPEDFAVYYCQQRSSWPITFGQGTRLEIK" obs_value=150000
molecule="H1H6976N: anti-PRLR antibody, human IgG1 Fc form of H2M6976N of Table 1; HCVR/LCVR SEQ ID NOs 386/394 (antibody, V domains shown, human IgG1 Fc) VH: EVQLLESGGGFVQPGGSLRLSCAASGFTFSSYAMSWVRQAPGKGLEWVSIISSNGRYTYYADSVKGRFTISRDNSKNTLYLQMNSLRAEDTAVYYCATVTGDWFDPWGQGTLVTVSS VL: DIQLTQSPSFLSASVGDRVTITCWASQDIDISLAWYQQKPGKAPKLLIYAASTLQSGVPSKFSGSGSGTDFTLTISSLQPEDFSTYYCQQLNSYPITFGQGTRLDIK" obs_value=544000
molecule="H1H6792P: fully human anti-PRLR antibody, human IgG1 Fc; HCVR/LCVR SEQ ID NOs 130/138 (antibody, V domains shown) VH: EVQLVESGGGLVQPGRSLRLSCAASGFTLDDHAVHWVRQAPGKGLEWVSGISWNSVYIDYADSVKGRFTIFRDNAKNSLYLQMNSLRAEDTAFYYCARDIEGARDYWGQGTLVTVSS VL: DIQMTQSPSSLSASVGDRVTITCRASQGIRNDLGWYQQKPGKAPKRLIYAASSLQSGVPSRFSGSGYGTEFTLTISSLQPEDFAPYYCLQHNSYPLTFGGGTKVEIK" obs_value=324000
molecule="H1H6782P: fully human anti-PRLR antibody, non-blocking; HCVR/LCVR SEQ ID NOs 66/74 (antibody, V domains shown) VH: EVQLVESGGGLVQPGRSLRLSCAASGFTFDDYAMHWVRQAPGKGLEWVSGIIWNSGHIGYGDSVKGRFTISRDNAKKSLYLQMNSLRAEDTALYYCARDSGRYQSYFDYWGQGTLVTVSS VL: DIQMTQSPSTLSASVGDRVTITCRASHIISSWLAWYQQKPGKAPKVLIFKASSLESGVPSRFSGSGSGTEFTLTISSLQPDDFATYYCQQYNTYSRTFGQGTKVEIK" obs_value=360000
